The reported measurements were obtained from patent US11111245B2.

target: CDK9/T1 (Homo sapiens); assay: ADP Glo Kinase assay CDK9/T1; assay type: biochemical; conditions: CDK9T1; read-out: CDK inhibition, Ki (μM) CDK9T1
Sequence (P50750 whole entry): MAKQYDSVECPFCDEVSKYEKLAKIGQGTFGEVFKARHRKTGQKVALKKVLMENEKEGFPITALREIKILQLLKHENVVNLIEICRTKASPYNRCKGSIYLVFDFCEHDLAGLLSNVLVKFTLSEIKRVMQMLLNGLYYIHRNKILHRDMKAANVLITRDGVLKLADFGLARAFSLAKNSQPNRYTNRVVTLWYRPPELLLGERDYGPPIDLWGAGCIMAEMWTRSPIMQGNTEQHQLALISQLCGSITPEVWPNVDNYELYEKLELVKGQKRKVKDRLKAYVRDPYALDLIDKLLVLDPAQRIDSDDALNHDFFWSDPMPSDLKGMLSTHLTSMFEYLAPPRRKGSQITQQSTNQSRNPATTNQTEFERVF
Sequence (O60563 whole entry partner): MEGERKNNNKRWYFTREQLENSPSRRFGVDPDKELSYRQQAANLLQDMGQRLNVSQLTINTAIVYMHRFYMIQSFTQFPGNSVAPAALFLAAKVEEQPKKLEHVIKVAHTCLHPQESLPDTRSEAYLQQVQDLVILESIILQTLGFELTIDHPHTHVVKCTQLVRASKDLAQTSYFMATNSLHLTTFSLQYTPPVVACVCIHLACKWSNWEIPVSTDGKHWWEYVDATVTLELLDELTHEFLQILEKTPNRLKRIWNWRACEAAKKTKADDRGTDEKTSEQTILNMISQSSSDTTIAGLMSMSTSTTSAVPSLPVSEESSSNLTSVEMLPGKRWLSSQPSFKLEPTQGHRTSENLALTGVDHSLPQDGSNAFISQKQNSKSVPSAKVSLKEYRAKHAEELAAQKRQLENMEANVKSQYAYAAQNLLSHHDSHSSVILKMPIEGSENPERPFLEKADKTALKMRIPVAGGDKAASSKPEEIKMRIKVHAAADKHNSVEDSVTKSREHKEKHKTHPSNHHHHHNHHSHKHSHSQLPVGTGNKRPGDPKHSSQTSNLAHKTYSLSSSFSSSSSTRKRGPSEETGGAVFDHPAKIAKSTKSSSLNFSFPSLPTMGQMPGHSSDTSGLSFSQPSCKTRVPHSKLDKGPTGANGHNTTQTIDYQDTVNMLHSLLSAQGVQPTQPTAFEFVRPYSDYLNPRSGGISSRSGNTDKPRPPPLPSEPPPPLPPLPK
propertyName: Ki (µM)

Suppose we examine the compound COCCN[C@H]1CC[C@H](Nc2ncc(C)c(-c3cnc4ccc(-c5ccccc5)cn34)n2)CC1 [Compound 129] ; what Ki value has been reported?
0.12

A: Cc1ccc2ncc(-c3nc(N[C@H]4CC[C@H](N)CC4)ncc3F)n2c1 [Compound 4]
B: Cc1cnc(NC2CCC(N(C)C)CC2)nc1-c1cnc2ccc(-c3ccccc3)cn12 (stereo not drawn) [Compound 97]
Identify the item whose Ki is the smaller number: A or B Return value: the label identifying the chosen record.
A
